- System: SNB-19 CNS
- measurementNotes: NCI-60 one-dose screen, 48 h
- conditionParameters: 10 µM unless noted
The panel holds about 83,000 compounds, 20% with a hit somewhere; the sample as a whole holds those more often. Calls of active or inactive are those of the source. Rule for the calls: active = growth percent below 10; inactive = the rest.
Write down one outcome, taken from 1 (yes) = active, 0 (no) = inactive

Observe how each entry below is paired with its result.
compound: Clc1ccc2c(NCCCCNc3nc(N4CCOCC4)nc4ccccc34)ccnc2c1
testTarget: SNB-19 CNS
discreteLabel: 0 (no)
//
compound: O=C1c2cc3c(cc2-c2c1c1ccc(F)cc1c(=O)n2CCCNCCO)OCO3
testTarget: SNB-19 CNS
discreteLabel: 1 (yes)

Query: Assay result, entry "COC(=O)[C@@H]1CCCN1C(=O)[C@@H]1CCCN1C(=O)[C@H](Cc1ccccc1)NC(=S)Nc1cc(C(F)(F)F)cc(C(F)(F)F)c1" — outcome?
Response: 0 (no)

Query: Could you check what this test reported for "Cn1cccc1-c1nc2c3c(ccc2[nH]1)C(=O)c1ccccc1C3=O" ?
Response: 0 (no)

---

- Tested on: K-562 leukemia
- measurementNotes: NCI-60 one-dose screen, 48 h
- conditionParameters: 10 µM unless noted
Compounds without any hit were thinned out: in the full panel of roughly 83,000, 20% have a hit. Activity calls are given as the source filed them. How the source made its calls: active means growth percent below 10; inactive means the rest.
Your answer must be one of the following: active, inactive

Query: // return assay outcome for C=CC(COC(c1ccccc1)(c1ccccc1)c1ccccc1)N(CC)CC (stereo not given)
Response: inactive

Query: Tell me the recorded outcome of this test for "COc1ccc(C(=O)COc2ccc(/C=C3\Oc4ccc(OC)cc4C3=O)cc2)cc1" .
Response: inactive

Query: In this assay, the call recorded for "O=C(COc1cccc(/C=C2\COc3ccc(Cl)cc3C2=O)c1)c1ccc(Cl)cc1" was what?
Response: inactive

Query: So what was the verdict on "C#CCOc1ccc2ncnc(N3CCN(C(=O)CCl)CC3)c2c1" in this test?
Response: inactive

Query: Write down the call the test reported for this compound. Item: "O=C(Nc1ccc(Cl)cc1)c1cc2cc(F)ccc2cc1O"
Response: inactive

Query: Assay result, entry "COc1ccc2c(c1)c(-c1nonc1-c1cn(C)c3ccccc13)cn2C" — outcome?
Response: inactive

Query: // param item: "CCCCCCN(CCCCCC)C(=N)c1ccnc2ccccc12" ; yields the recorded call
Response: inactive

Query: Identify the outcome logged in this assay for the compound shown: "COc1cc(/C=C/c2cc(/C=C/c3ccc(O)c(OC)c3)n(-c3c(C)cccc3C)c(=O)n2)ccc1O"
Response: active

Query: Test call for this compound, please: "O=C(N/N=C/c1c[nH]c2ccccc12)c1cc(-c2ccccc2)on1"
Response: inactive

Query: Entry "Cc1nn(-c2ccc(F)cc2)c2ncnc(Nc3ccc(NC(=O)Nc4ccc(Cl)c(C(F)(F)F)c4)cc3)c12" : call = ?
Response: inactive

---

- Test system: SW-620 colon
- measurementNotes: NCI-60 one-dose screen, 48 h (100 = growth as untreated, 0 = no growth, -100 = all killed)
- conditionParameters: 10 µM unless noted
About 83,000 compounds went through this panel and 20% of them were active in at least one assay; those are over-represented in the sample as a whole.
Criterion: growth meeting or surpassing 30%. Met: True. Not met: False.

Some solved cases for reference:
smi: COc1cc2c(cc1-c1c(C)noc1C)ncc1nc(-c3ccccn3)n([C@H](C)COC(F)F)c12
discreteLabel: True
//
smi: NS(=O)(=O)c1ccc(CN=C2NC(=O)S/C2=C\c2ccc(Br)cc2)cc1
discreteLabel: True
//
smi: COC(=O)c1ccc(NC(=O)c2ccc(-c3cccc([N+](=O)[O-])c3)o2)cc1
discreteLabel: True
//
smi: Oc1cccc2ccc(N/N=C/c3cc(CN4CCOCC4)c(O)c4ncccc34)nc12
discreteLabel: False

Query: Check the entry "O=C(COc1ccc(/C=C2\CSc3ccccc3C2=O)cc1)Nc1nccs1" : does growth equal or exceed 30%?
Response: False
